# EXPERIMENTAL TARGET: T1, KSRP KH3 (UniProt Q92945 323-418)
# T1 sequence: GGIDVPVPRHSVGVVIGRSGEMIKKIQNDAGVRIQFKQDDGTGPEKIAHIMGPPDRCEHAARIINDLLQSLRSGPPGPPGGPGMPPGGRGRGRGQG
# TEST PROTOCOL: NMR 15N-HSQC titration
MEASURE: pKd
Interpret pKd as the negative base-10 log of the concentration measured in mol/L.

| BINDER | MEASURE | EXPERIMENTAL VALUE |
| --- | --- | --- |
| UAGGUU (ssRNA) [UAGGUU (UAGGUA in Fig 4b legend)] | pKd | 5.22 |

Turning now to a further binder:
Any idea what pKd was measured for UAGUAU (ssRNA) ? 4.59
